Exercise: state measured Inhibition Rate for each of the molecules provided.
system: normal human lung fibroblast (HLF) cells; assay: Cytotoxicity assay (MTT) on normal human lung fibroblast cells; details: 1 µM, 72 h
Numbers only, in %.

Observe how each entry below is paired with its result.
{"Molecule": "NC(=O)c1scc2[nH]c(-c3ccc([N+](=O)[O-])cc3)nc12 [Compound 16i]", "Inhibition Rate / %": 1.33}
{"Molecule": "NC(=O)c1scc2[nH]c(-c3cccc(C(F)(F)F)c3)nc12 [Compound 16g]", "Inhibition Rate / %": "−1.02"}
{"Molecule": "C[C@]1(c2nc3c(C(N)=O)cccc3[nH]2)CCCN1 [Veliparib, veliparib, reference compound]", "Inhibition Rate / %": "−0.28"}

Please go through the list and note Inhibition Rate for each molecule.
1. Cc1ccc(-c2nc3c(C(N)=O)scc3[nH]2)cc1 [Compound 16l]
2. COc1ccc(-c2nc3c(C(N)=O)scc3[nH]2)cc1 [Compound 16j]

3.80
2.85

Recorded Inhibition Rate of O=C(c1cc(Cc2n[nH]c(=O)c3ccccc23)ccc1F)N1CCN(C(=O)C2CC2)CC1 [Olaparib, olaparib, reference compound] , please.
1.83

###

test system: CAPAN-1 (BRCA2-deficient) cells; test: CellTiter Glo assay for cell growth inhibition, CAPAN-1; conditions: Homo sapiens, CAPAN-1, 96 h, read-out: IC50 (BRCA-2, CAPAN-1)
Field: pIC50. Provide a value for each of the molecules that follow.
One number for each entry, as −log10 of the molar value.

Past entries and their recorded results:
{"Molecule": "NC(=O)c1scc2[nH]c(-c3ccc([N+](=O)[O-])cc3)nc12 [Compound 16i]", "pIC50": 4.57}
{"Molecule": "Cc1ccc(-c2nc3c(C(N)=O)scc3[nH]2)cc1 [Compound 16l]", "pIC50": 4.41}
{"Molecule": "O=C(c1cc(Cc2n[nH]c(=O)c3ccccc23)ccc1F)N1CCN(C(=O)C2CC2)CC1 [Olaparib, olaparib, reference compound]", "pIC50": 4.87}
{"Molecule": "COc1ccc(-c2nc3c(C(N)=O)scc3[nH]2)cc1 [Compound 16j]", "pIC50": 4.33}

--- query ---
Need pIC50 of NC(=O)c1scc2[nH]c(-c3cccc(C(F)(F)F)c3)nc12 [Compound 16g] , thanks.
4.41

###

molecular target: PARP-1 enzyme (Homo sapiens, UniProt P09874); construct: purchased Trevigen 4690-096-K; test: PARP-1 enzymatic inhibition assay (Trevigen 96-well kit, fluorescence); type: biochemical; conditions: Table 1 series (12, 13a–j); logit method, six concentrations; read-out: IC50 (PARP-1 enzyme inhibitory activity)
Sequence (P09874 whole entry): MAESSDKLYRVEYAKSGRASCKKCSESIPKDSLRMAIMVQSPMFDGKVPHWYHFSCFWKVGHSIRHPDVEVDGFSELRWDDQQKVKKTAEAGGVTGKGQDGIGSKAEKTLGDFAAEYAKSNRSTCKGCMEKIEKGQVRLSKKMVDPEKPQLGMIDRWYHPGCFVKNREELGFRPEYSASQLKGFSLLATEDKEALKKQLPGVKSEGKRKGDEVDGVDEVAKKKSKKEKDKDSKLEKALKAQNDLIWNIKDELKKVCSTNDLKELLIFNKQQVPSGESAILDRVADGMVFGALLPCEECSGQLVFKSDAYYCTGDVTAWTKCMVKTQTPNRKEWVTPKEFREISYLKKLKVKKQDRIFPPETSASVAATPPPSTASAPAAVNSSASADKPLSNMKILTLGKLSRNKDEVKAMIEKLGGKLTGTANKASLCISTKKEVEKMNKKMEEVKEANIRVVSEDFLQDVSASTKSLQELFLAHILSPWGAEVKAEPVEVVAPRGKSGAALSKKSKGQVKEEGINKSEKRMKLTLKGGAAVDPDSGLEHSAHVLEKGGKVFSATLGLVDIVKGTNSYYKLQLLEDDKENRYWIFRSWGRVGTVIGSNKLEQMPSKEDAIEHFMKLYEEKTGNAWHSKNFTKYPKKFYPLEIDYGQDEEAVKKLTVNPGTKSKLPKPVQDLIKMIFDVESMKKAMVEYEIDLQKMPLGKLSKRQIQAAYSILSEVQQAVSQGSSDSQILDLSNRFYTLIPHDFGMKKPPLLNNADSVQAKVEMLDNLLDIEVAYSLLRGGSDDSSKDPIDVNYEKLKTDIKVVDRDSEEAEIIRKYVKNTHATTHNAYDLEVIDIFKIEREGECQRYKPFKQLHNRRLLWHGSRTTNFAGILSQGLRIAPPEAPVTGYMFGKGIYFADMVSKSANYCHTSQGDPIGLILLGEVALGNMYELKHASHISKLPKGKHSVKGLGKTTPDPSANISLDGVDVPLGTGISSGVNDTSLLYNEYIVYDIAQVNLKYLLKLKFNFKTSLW
Answer each item with its documented pIC50.
Give bare numbers, as −log10 of the molar value.

Some solved entries appear below for comparison.
{"Compound": "NC(=O)c1scc2[nH]c(-c3ccc(C(=O)N4CCN(C(=O)c5cccs5)CC4)cc3)nc12 [Compound 13a]", "Study Target": "PARP-1 enzyme (Homo sapiens, UniProt P09874)", "pIC50": 5.59}
{"Compound": "NC(=O)c1scc2[nH]c(-c3ccc(C(=O)N4CCN(Cc5ccccc5)CC4)cc3)nc12 [Compound 13f]", "Study Target": "PARP-1 enzyme (Homo sapiens, UniProt P09874)", "pIC50": 5.41}
{"Compound": "NC(=O)c1scc2[nH]c(-c3ccc(C(=O)N4CCN(C(=O)c5ccc(Br)cc5)CC4)cc3)nc12 [Compound 13c]", "Study Target": "PARP-1 enzyme (Homo sapiens, UniProt P09874)", "pIC50": 5.73}

Count: 4. Required value per item: pIC50.
1. NC(=O)c1scc2[nH]c(-c3ccc(C(=O)N4CCN(C(=O)c5ccccc5)CC4)cc3)nc12 [Compound 13b]
2. N#Cc1ccc(CN2CCN(C(=O)c3ccc(-c4nc5c(C(N)=O)scc5[nH]4)cc3)CC2)cc1 [Compound 13h]
3. NC(=O)c1scc2[nH]c(-c3ccc(C(=O)N4CCN(C(=O)C5CC5)CC4)cc3)nc12 [Compound 13j]
4. NC(=O)c1scc2[nH]c(-c3ccc(C(=O)N4CCNCC4)cc3)nc12

[5.42, 5.43, 5.82, 6.14]

###

Record form. Attribute: IC50 at 72 h. Fill in for each entry.
test: in vitro; conditions: human, normal human lung fibroblast (HLF) cells
Answers are plain numbers, in µM.

{"Compound": "NC(=O)c1scc2[nH]c(-c3ccc([N+](=O)[O-])cc3)nc12 [Compound 16i]", "IC50 at 72 h / µM": 94.1}
{"Compound": "O=C(c1cc(Cc2n[nH]c(=O)c3ccccc23)ccc1F)N1CCN(C(=O)C2CC2)CC1 [Olaparib, olaparib, reference compound]", "IC50 at 72 h / µM": 134}

Kindly review the next compound as well.
Can you share its IC50 at 72 h? I mean this compound: NC(=O)c1scc2[nH]c(-c3cccc(C(F)(F)F)c3)nc12 [Compound 16g]
77.6

###

Please go through the items and note down their IC50.
molecular target: PARP-1 enzyme (Homo sapiens, UniProt P09874); construct: purchased Trevigen 4690-096-K; assay: PARP-1 enzymatic inhibition assay (Trevigen 96-well kit, fluorescence); type: biochemical; settings: Table 2 series (16a–n); logit method, six concentrations; read-out: IC50 (PARP-1 enzyme inhibitory activity)
One number for each entry, in nM.

Some entries whose results are on file:
{"Compound": "Cc1ccc(-c2nc3c(C(N)=O)scc3[nH]2)cc1 [Compound 16l]", "Study Target": "PARP-1 enzyme (Homo sapiens, UniProt P09874)", "IC50, nM": 43}
{"Compound": "NC(=O)c1scc2[nH]c(-c3ccc([N+](=O)[O-])cc3)nc12 [Compound 16i]", "Study Target": "PARP-1 enzyme (Homo sapiens, UniProt P09874)", "IC50, nM": 136}
{"Compound": "COc1cccc(-c2nc3c(C(N)=O)scc3[nH]2)c1 [Compound 16k]", "Study Target": "PARP-1 enzyme (Homo sapiens, UniProt P09874)", "IC50, nM": 1490}
{"Compound": "NC(=O)c1scc2[nH]c(-c3ccc(F)cc3)nc12 [Compound 16b]", "Study Target": "PARP-1 enzyme (Homo sapiens, UniProt P09874)", "IC50, nM": 738}
{"Compound": "NC(=O)c1scc2[nH]c(-c3ccc(Cl)cc3)nc12 [Compound 16c]", "Study Target": "PARP-1 enzyme (Homo sapiens, UniProt P09874)", "IC50, nM": 354}
{"Compound": "NC(=O)c1scc2[nH]c(-c3ccccc3)nc12 [Compound 16a]", "Study Target": "PARP-1 enzyme (Homo sapiens, UniProt P09874)", "IC50, nM": 827}
{"Compound": "NC(=O)c1scc2[nH]c(-c3ccccc3Cl)nc12 [Compound 16d]", "Study Target": "PARP-1 enzyme (Homo sapiens, UniProt P09874)", "IC50, nM": 1490}
{"Compound": "COc1ccc(-c2nc3c(C(N)=O)scc3[nH]2)cc1 [Compound 16j]", "Study Target": "PARP-1 enzyme (Homo sapiens, UniProt P09874)", "IC50, nM": 102}
{"Compound": "NC(=O)c1scc2[nH]c(-c3cccc(C(F)(F)F)c3)nc12 [Compound 16g]", "Study Target": "PARP-1 enzyme (Homo sapiens, UniProt P09874)", "IC50, nM": 151}
{"Compound": "NC(=O)c1scc2[nH]c(-c3ccc(C(F)(F)F)cc3)nc12 [Compound 16f]", "Study Target": "PARP-1 enzyme (Homo sapiens, UniProt P09874)", "IC50, nM": 548}

Give one value of IC50 per listed compound.
1. Cc1ccccc1-c1nc2c(C(N)=O)scc2[nH]1 [Compound 16n]
2. Cc1cccc(-c2nc3c(C(N)=O)scc3[nH]2)c1 [Compound 16m]

1. 328
2. 5790

###

tested on: HCC1937 (BRCA1-deficient) cells; assay: CellTiter Glo assay for cell growth inhibition, HCC1937; details: read-out: IC50 (BRCA-1, HCC1937); HCC1937, 96 h, CellTiter Glo, nine concentrations
Experimental Endpoint: pIC50
Answers are plain numbers, as −log10 of the molar value.

Requested field: pIC50. Item: C[C@]1(c2nc3c(C(N)=O)cccc3[nH]2)CCCN1 [Veliparib, veliparib, reference compound]
3.90

###

Provide the recorded melting point for the entries that follow.

{"Molecule": "Cc1ccc(CN2CCN(C(=O)c3ccc(-c4nc5c(C(N)=O)scc5[nH]4)cc3)CC2)cc1 [Compound 13i]", "melting point": "272 to 273 °C"}

Need melting point for each of these molecules.
1. NC(=O)c1scc2[nH]c(-c3ccc(F)cc3)nc12 [Compound 16b]
2. Cc1ccccc1-c1nc2c(C(N)=O)scc2[nH]1 [Compound 16n]
3. NC(=O)c1scc2[nH]c(-c3c(Cl)cccc3Cl)nc12 [Compound 16e]
4. NC(=O)c1scc2[nH]c(-c3ccccc3Cl)nc12 [Compound 16d]
5. NC(=O)c1scc2[nH]c(-c3ccc(C(=O)N4CCN(C(=O)c5ccc(Br)cc5)CC4)cc3)nc12 [Compound 13c]
6. NC(=O)c1scc2[nH]c(-c3ccccc3)nc12 [Compound 16a]
7. N#Cc1ccc(CN2CCN(C(=O)c3ccc(-c4nc5c(C(N)=O)scc5[nH]4)cc3)CC2)cc1 [Compound 13h]
8. NC(=O)c1scc2[nH]c(-c3ccccc3C(F)(F)F)nc12 [Compound 16h]

244 to 246 °C
222 to 223 °C
210 to 212 °C
202 to 204 °C
294 to 296 °C
256 to 257 °C
284 to 286 °C
241 to 243 °C
